The values you see were collected from patent US20180194862A1.

- SYSTEM_TESTED: T1, cynomolgus mesothelin (cynomolgus)
- T1 construct: also called cynoMSLN; Cyno MSLN
- TEST_DESCRIPTION: SPR
We begin with a simple list: items and their reported kon.
OBSERVABLE: kon (M⁻¹ s⁻¹)

{"columns": ["BINDER", "OBSERVABLE", "MEASURED_RESULT"],
 "data": [
  ["HuAM17 (antibody, V domains shown, fully human antibody) VH: EVQLVQSGAEVKKPGASVKVSCKASGDTFNRYYVQWVRQAPGQGLEWMGIINPSGVSTTYAQKFQGRVTMTRDTSTSTVYMELSSLRSEDTAVYYCAESRVPGYNIFAMDVWGQGTLVTVSS VL: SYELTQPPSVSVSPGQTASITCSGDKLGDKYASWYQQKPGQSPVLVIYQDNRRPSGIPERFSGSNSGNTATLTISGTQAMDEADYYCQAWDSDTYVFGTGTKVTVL", "kon", 27000],
  ["HuAM15 (antibody, V domains shown, fully human antibody) VH: EVQLVQSGAEVKKPGASVKVSCKASGDTFKRYYVHWVRQAPGQGLEWMGIINPSGVSTTYAQKFQGRVTMTRDTSTSTVYMELSSLRSEDTAVYYCAEVRGSGFNYFGMDVWGQGTLVTVSS VL: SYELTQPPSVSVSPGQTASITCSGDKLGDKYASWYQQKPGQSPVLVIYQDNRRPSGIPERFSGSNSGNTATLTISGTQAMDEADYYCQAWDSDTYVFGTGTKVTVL", "kon", 40000],
  ["HuAM5 (antibody, V domains shown, fully human antibody) VH: EVQLVQSGAEVKKPGASVKVSCKASGDTFNRYYVHWVRQAPGQGLEWMGIINPSGVSTTYAQKFQGRVTMTRDTSTSTVYMELSSLRSEDTAVYYCAEVRGSGYNYFAMDVWGQGTLVTVSS VL: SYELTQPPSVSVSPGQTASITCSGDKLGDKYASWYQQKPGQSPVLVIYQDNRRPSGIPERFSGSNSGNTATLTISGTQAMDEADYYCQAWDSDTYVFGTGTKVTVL", "kon", 20000],
  ["HuAM16 (antibody, V domains shown, fully human antibody) VH: EVQLVQSGAEVKKPGASVKVSCKASGDTFNRYYVQWVRQAPGQGLEWMGIINPSGVSTTYAQKFQGRVTMTRDTSTSTVYMELSSLRSEDTAVYYCAETRGSGFNYFGMDVWGQGTLVTVSS VL: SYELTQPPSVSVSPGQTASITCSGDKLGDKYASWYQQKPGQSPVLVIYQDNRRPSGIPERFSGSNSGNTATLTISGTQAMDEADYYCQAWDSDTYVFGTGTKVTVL", "kon", 47000],
  ["HuAM18 (antibody, V domains shown, fully human antibody) VH: EVQLVQSGAEVKKPGASVKVSCKASGDTFNRYYVHWVRQAPGQGLEWMGIINPSGVSTTYAQKFQGRVTMTRDTSTSTVYMELSSLRSEDTAVYYCAETRGSGYNYFGMDVWGQGTLVTVSS VL: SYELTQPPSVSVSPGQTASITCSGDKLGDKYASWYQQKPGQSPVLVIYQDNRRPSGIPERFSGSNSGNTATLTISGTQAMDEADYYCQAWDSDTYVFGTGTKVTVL", "kon", 14000],
  ["HuAb17 (antibody, V domains shown, fully human antibody) VH: EVQLVQSGAEVKEPGASVKVSCKASGDTFNRYYVHWARQAPGQGLEWMGIINPSGVSTTYAQKFQGRVTMTRDTPTNTVYMELGSLRPEDTAVYFCAESRGSGYNYFAMDVWGQGTLVTVSS VL: SYELTQPPSVSVSPGQTADITCSGDKLGDKYASWYQQKPGQSPVLVIYQDNRRPSGIPERFSGSNSGNTATLTISGTQAMDEADYYCQAWDSDTYVFGPGTKVTVL", "kon", 15000],
  ["HuAM1 (antibody, V domains shown, fully human antibody) VH: EVQLVQSGAEVKKPGASVKVSCKASGDTFKRYYVQWVRQAPGQGLEWMGIINPSGVSTTYAQKFQGRVTMTRDTSTSTVYMELSSLRSEDTAVYYCAESRGSGYNYFAMDVWGQGTLVTVSS VL: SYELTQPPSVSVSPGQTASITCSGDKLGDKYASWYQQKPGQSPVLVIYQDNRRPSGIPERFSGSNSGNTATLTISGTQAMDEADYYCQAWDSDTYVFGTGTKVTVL", "kon", 18000],
  ["HuAM6 (antibody, V domains shown, fully human antibody) VH: EVQLVQSGAEVKKPGASVKVSCKASGDTFNRYYVHWVRQAPGQGLEWMGIINPSGVSTTYAQKFQGRVTMTRDTSTSTVYMELSSLRSEDTAVYYCAESRVPGYNNFAMDVWGQGTLVTVSS VL: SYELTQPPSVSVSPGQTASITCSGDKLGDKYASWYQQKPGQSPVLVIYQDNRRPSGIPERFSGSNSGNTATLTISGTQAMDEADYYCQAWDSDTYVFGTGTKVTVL", "kon", 22000],
  ["HuAM7 (antibody, V domains shown, fully human antibody) VH: EVQLVQSGAEVKKPGASVKVSCKASGDTFNRYYVHWVRQAPGQGLEWMGIINPSGVSTTYAQKFQGRVTMTRDTSTSTVYMELSSLRSEDTAVYYCAEVRGSGYNYFGMDVWGQGTLVTVSS VL: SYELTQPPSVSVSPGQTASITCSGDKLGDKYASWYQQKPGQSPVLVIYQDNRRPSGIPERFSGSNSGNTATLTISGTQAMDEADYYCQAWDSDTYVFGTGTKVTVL", "kon", 22000]
]}
